Tested on: Human immunodeficiency virus 1
protocol details: Antiviral activity against HIV1
Format: functional, organism-based
Reported pEC50 by item:
Kindly note that pEC50 refers to -log10 of the concentration in mol/L and answer with the value alone.

Solved cases below.
Cc1cc(C)cc(Sc2c(C(=O)NCCO)[nH]c3ccc(Cl)cc23)c1; 7.92
Nc1ccc(Cl)cc1-n1ccc2ccccc21; 5.22
NNC(=O)c1[nH]c2ccc(Cl)cc2c1Sc1ccc(Cl)cc1; 5.00

Find the measured pEC50: item `NNC(=O)c1[nH]c2ccc(Cl)cc2c1Sc1ccccc1` , target or system Human immunodeficiency virus 1.
6.26

Query `NC(=O)c1[nH]c2ccccc2c1Sc1cc(Cl)ccc1N` next
5.05

----------
Tested on: MT4
protocol details: Cytotoxicity against MT4 cell line by MTT assay
Type: functional
measurement conditions: Homo sapiens, read-out: TC50 (the source's name)
Reported CC50 by item:

Solved cases below.
Cc1cc(C)cc(S(=O)(=O)c2c(C(=O)NCC(=O)NN)[nH]c3ccc(Cl)cc23)c1; > 100 µM
O=C(NN1CCOC1=O)c1[nH]c2ccc(Cl)cc2c1S(=O)(=O)c1ccccc1; > 100 µM

For `Cc1cc(C)cc(S(=O)(=O)c2c(C(=O)NCC(N)=O)[nH]c3ccc(Cl)cc23)c1` , what is its reported CC50?
45 µM

Query `CC(=O)NNC(=O)c1[nH]c2ccc(Cl)cc2c1S(=O)(=O)c1cc(C)cc(C)c1` next
> 100 µM

Query `Cc1cc(C)cc(S(=O)(=O)c2c(C(=O)NNC(C)C)[nH]c3ccc(Cl)cc23)c1` next
> 100 µM

Query `Cc1cc(C)cc(S(=O)(=O)c2c(C(=O)NNC3CCCCC3)[nH]c3ccc(Cl)cc23)c1` next
> 100 µM

Query `Cc1cc(C)cc(S(=O)(=O)c2c(C(=O)NNC(=O)NN)[nH]c3ccc(Cl)cc23)c1` next
> 100 µM

----------
Reported Selectivity index by item:
System: Lymphocyte
protocol details: Selectivity index, TC50 for human lymphocytes/EC50 for HIV1 3B
Type: functional

Solved cases below.
O=C(NN1CCOC1=O)c1[nH]c2ccc(Cl)cc2c1S(=O)(=O)c1ccccc1; >1000
Cc1cc(C)cc(S(=O)(=O)c2c(C(=O)NNC(=O)NN)[nH]c3ccc(Cl)cc23)c1; >3333
CCOC(=O)NNC(=O)c1[nH]c2ccc(Cl)cc2c1S(=O)(=O)c1cc(C)cc(C)c1; >5000
Cc1cc(C)cc(S(=O)(=O)c2c(C(=O)NN3CCOC3=O)[nH]c3ccc(Cl)cc23)c1; >10000
CNNC(=O)c1[nH]c2ccc(Cl)cc2c1S(=O)(=O)c1cc(C)cc(C)c1; >5000

For `Cc1cc(C)cc(S(=O)(=O)c2c(C(=O)NNC3CCCCC3)[nH]c3ccc(Cl)cc23)c1` , what is its reported Selectivity index?
>125

Query `Cc1cc(C)cc(S(=O)(=O)c2c(C(=O)NNC(C)C)[nH]c3ccc(Cl)cc23)c1` next
>12500

Query `CC(=O)NNC(=O)c1[nH]c2ccc(Cl)cc2c1S(=O)(=O)c1cc(C)cc(C)c1` next
>10000

Query Cc1ccnc2c1NC(=O)c1cccnc1N2C1CC1 [NEVIRAPINE] next
>1111

----------
System: Human immunodeficiency virus
protocol details: Activity against HIV-112 assessed by inhibition of p24 production in human lymphocytes
Type: functional, organism-based
measurement conditions: Human immunodeficiency virus 1
Exam item: assign class 1 to entries whose EC50 is below 0.03 µM and class 0 to entries at or above 0.03 µM. Note that a value of exactly 0.03 µM receives class 0.

These solved cases illustrate the format of a correct answer.
O=C(NN1CCOC1=O)c1[nH]c2ccc(Cl)cc2c1S(=O)(=O)c1ccccc1; class 0
Cc1cc(C)cc(S(=O)(=O)c2c(C(=O)NNC(C)C)[nH]c3ccc(Cl)cc23)c1; class 1
CNNC(=O)c1[nH]c2ccc(Cl)cc2c1S(=O)(=O)c1cc(C)cc(C)c1; class 0
Cc1cc(C)cc(S(=O)(=O)c2c(C(=O)NNC(=O)NN)[nH]c3ccc(Cl)cc23)c1; class 0
CC(=O)NNC(=O)c1[nH]c2ccc(Cl)cc2c1S(=O)(=O)c1cc(C)cc(C)c1; class 1
Cc1ccnc2c1NC(=O)c1cccnc1N2C1CC1; class 0
O=C1Nc2ccc(Cl)cc2[C@@](C#CC2CC2)(C(F)(F)F)O1; class 0

Please find the next molecule below.
Lab note: EC50 threshold 0.03 µM. Does this molecule come in strictly under it? `Cc1cc(C)cc(S(=O)(=O)c2c(C(=O)NNC3CCCCC3)[nH]c3ccc(Cl)cc23)c1`
class 0
